tested on: OVCAR-5 ovarian; assay: NCI tumour cell line growth inhibition, 48 h
Entries and their TGI values follow.

Some compounds with recorded TGI:
NC(CSC(c1ccccc1)(c1ccccc1)c1ccc(Br)cc1)C(=O)O (configuration not stated) ... > 100 µM
Clc1ccc2c(NCCCNCc3ccc4c(c3)OCO4)ccnc2c1 ... 18.8 µM
CCCCCCOc1ccc(/C=N/Nc2cc(C)nc3ccc(Br)cc23)cc1 ... 3.36 µM
Nc1c(S(=O)(=O)O)cc2c(c1Cl)C(=O)c1ccccc1C2=O ... > 100 µM
c1ccc(Oc2cnc3ccccc3n2)cc1 ... > 100 µM
Cn1c(=O)ccc2cc(C(=O)c3ccccc3)ccc21 ... > 100 µM

Would you please give the reported TGI of COc1ccc2oc(=O)c(-c3nc4ccccc4s3)cc2c1 with OVCAR-5 ovarian?
> 100 µM

* * *

test system: SNB-19 CNS; assay: NCI tumour cell line growth inhibition, 48 h
Entries and their TGI values follow.

Some compounds with recorded TGI:
O=C(c1ccccc1)C(c1ccccc1)C1(O)C(=O)Nc2ccc(Br)cc21 (stereo not drawn) ... > 100 µM
O=C(O)Cc1ccc(-n2nnc3c(=O)[nH][nH]c(=O)c32)cc1 ... > 100 µM

Next compound, please.
Supply reported TGI belonging to this compound: CC(C)N=C(NC#N)NS(=O)(=O)c1cnccc1NC1CCCCCCC1
> 100 µM

* * *

system: A549 NSCLC; assay: NCI tumour cell line growth inhibition, 48 h
Entries and their GI50 values follow.

Some compounds with recorded GI50:
O=C(Nc1ccc(-n2cc(-c3ccncc3)c(-c3ccc(Cl)c(O)c3)n2)cc1)c1ccc(Cl)c(C(F)(F)F)c1 ... 5.41 µM
CCOc1ccc(-n2cc(-c3ccc(N(C)C)cc3)[n+]3c2CCCCC3)cc1 ... 1.88 µM

Next compound, please.
Supply reported GI50 belonging to this compound: O=c1c(Br)ccc(Br)cc1Br
9.02 µM

* * *

tested on: HL-60(TB) leukemia; assay: NCI tumour cell line growth inhibition, 48 h
property measured: TGI

Some compounds with recorded TGI:
COC(=O)Cc1c(-c2c(CC(=O)OC)c3ccccc3n2C2OC(COC3OC(COC(C)=O)C(OC(C)=O)C(OC(C)=O)C3OC(C)=O)C(O)C(O)C2O)[nH]c2ccccc12 (configuration not stated) ... > 100 µM
CCOC(=O)C(C(=O)OCC)C(=S)NC1OC(COC(C)=O)C(OC(C)=O)C(OC(C)=O)C1OC(C)=O (configuration not stated) ... > 100 µM
COc1ccc(S(=O)(=O)Nc2c(/C=C\c3cc(OC)c(OC)c(OC)c3)ccc(OC)c2O)cc1OC ... > 100 µM

Supply reported TGI belonging to this compound: CCc1cc(Cc2cc(CC)cc(C(C)(C)C)c2O)c(O)c(C(C)(C)C)c1
> 100 µM

Supply reported TGI belonging to this compound: CCC1(O)CC(c2ccccc2)N(C)C(c2ccccc2)C1 (configuration not stated)
> 100 µM

Supply reported TGI belonging to this compound: COc1ccc2c(c1)cn1c3ccc(OC)cc3[nH]c(=O)c21
< 0.0219 µM

Supply reported TGI belonging to this compound: O=C1CCCC1C(O)(C(F)(F)Cl)C(F)(F)Cl (configuration not stated)
> 10 µM

Supply reported TGI belonging to this compound: CC(=O)Nc1ccc(C(=O)NN2C(=O)C(Cl)C2/C=C/c2ccccc2)cc1 (configuration not stated)
> 100 µM

Supply reported TGI belonging to this compound: O=C(NCCOCCO)c1ccc(O)cc1
> 100 µM

Supply reported TGI belonging to this compound: CC(=O)c1ccc(-c2ccc(C(C)=O)s2)s1
> 100 µM

Supply reported TGI belonging to this compound: FC(F)(F)c1ccc(N=NN2CCCC2)cc1
> 100 µM

Supply reported TGI belonging to this compound: COc1cccc(-c2nn(C)c3sc(C(=O)NCCN4CCN(c5ccccc5F)CC4)cc23)c1
> 100 µM

Supply reported TGI belonging to this compound: C=C(C)[C@H]1C=C[C@@H](OC(C)=O)[C@@]2(COC(C)=O)[C@H](OC(=O)CCC)[C@H]3[C@@H](OC(C)=O)[C@@H](C)C[C@]3(O)C(=O)[C@@](C)(OC(C)=O)[C@H]12
> 100 µM
